# target_desc: GRK6 (human)
# test_method_notes: radiometric filter-binding kinase assay, Kinase HotSpot
# condition_notes: compound 0.5 µM; ATP 10 µM
# key: entry, value: residual activity
Numeric only. Scale: %

Past entries and their recorded results:
molecule	quantitative_readout
COc1cc2nccc(Oc3ccc(NC(=S)NC(=O)c4ccccc4C)cc3)c2cc1OC	91
Nc1n[nH]c2nnc(-c3c(-c4ccccc4)nn4ccccc34)cc12	99.3
COc1cc2ncnc(Nc3ccc(F)c(Cl)c3)c2cc1OCCCN1CCOCC1	99.6
O=C(NC(NC(=S)Nc1ccc(F)c([N+](=O)[O-])c1)C(Cl)(Cl)Cl)C(c1ccccc1)c1ccccc1 (stereo not given)	97.5
COc1ccc(-c2cnc3c(-c4ccsc4)cnn3c2)cc1	99.9
CCN1/C(=C/C(C)=O)Sc2ccc(OC)cc21	103
CS(=O)c1ccc(-c2nc(-c3ccc(F)cc3)c(-c3ccncc3)[nH]2)cc1 (stereo not given)	102
CC(C)[C@H](CO)Nc1nc(Nc2cccc(Cl)c2)c2ncn(C(C)C)c2n1	98.3
Nc1nc(Nc2ccc(S(N)(=O)=O)cc2)nn1C(=S)Nc1c(F)cccc1F	89.4

Kindly consider the entry below.
Ask: Return residual activity (reported value) for this molecule: O=C1Cc2c([nH]c3ccc([N+](=O)[O-])cc23)-c2ccccc2N1
Result: 93.8

* * *

# target_desc: MYLK2 (human) (UniProt Q9H1R3)
# Sequence (Q9H1R3 whole entry, looked up): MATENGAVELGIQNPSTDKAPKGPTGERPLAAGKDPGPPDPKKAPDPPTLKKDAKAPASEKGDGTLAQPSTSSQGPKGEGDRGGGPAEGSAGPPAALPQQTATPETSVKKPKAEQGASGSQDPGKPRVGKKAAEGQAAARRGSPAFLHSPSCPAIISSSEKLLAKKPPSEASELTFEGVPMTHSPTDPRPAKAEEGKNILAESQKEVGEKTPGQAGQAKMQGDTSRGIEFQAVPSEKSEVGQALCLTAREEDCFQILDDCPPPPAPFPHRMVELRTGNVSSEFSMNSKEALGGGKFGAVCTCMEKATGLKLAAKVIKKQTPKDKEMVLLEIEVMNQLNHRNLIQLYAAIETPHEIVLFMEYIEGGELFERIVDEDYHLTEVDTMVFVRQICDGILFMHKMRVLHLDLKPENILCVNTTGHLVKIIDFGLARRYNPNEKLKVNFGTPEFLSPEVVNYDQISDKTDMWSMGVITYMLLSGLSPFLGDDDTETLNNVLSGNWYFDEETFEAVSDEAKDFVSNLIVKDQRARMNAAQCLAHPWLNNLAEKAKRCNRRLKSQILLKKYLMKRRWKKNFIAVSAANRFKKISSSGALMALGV
# test_method_notes: radiometric filter-binding kinase assay, Kinase HotSpot
# condition_notes: compound 0.5 µM; ATP 10 µM
measured_attribute: residual activity
I'd appreciate it if you wrote the number followed by its unit.

Below: 3 molecules and their reported residual activity.
smiles_structure	measured_attribute	result
Oc1ccc(-c2nc(-c3ccc(F)cc3)c(-c3ccncc3)[nH]2)cc1	residual activity	93.5%
O=C1Cc2c([nH]c3ccc([N+](=O)[O-])cc23)-c2ccccc2N1	residual activity	94.8%
O=C1Nc2cc(Br)ccc2/C1=C1/Nc2ccccc2/C1=N\O	residual activity	17.6%

Ask: Give the measured residual activity for NC(=O)c1ccc(N(C(N)=O)c2c(F)cccc2F)nc1-c1ccc(F)cc1F
Result: 101%

* * *

# target_desc: CDC42BPA (human) (UniProt Q5VT25)
# Sequence (Q5VT25 whole entry, looked up): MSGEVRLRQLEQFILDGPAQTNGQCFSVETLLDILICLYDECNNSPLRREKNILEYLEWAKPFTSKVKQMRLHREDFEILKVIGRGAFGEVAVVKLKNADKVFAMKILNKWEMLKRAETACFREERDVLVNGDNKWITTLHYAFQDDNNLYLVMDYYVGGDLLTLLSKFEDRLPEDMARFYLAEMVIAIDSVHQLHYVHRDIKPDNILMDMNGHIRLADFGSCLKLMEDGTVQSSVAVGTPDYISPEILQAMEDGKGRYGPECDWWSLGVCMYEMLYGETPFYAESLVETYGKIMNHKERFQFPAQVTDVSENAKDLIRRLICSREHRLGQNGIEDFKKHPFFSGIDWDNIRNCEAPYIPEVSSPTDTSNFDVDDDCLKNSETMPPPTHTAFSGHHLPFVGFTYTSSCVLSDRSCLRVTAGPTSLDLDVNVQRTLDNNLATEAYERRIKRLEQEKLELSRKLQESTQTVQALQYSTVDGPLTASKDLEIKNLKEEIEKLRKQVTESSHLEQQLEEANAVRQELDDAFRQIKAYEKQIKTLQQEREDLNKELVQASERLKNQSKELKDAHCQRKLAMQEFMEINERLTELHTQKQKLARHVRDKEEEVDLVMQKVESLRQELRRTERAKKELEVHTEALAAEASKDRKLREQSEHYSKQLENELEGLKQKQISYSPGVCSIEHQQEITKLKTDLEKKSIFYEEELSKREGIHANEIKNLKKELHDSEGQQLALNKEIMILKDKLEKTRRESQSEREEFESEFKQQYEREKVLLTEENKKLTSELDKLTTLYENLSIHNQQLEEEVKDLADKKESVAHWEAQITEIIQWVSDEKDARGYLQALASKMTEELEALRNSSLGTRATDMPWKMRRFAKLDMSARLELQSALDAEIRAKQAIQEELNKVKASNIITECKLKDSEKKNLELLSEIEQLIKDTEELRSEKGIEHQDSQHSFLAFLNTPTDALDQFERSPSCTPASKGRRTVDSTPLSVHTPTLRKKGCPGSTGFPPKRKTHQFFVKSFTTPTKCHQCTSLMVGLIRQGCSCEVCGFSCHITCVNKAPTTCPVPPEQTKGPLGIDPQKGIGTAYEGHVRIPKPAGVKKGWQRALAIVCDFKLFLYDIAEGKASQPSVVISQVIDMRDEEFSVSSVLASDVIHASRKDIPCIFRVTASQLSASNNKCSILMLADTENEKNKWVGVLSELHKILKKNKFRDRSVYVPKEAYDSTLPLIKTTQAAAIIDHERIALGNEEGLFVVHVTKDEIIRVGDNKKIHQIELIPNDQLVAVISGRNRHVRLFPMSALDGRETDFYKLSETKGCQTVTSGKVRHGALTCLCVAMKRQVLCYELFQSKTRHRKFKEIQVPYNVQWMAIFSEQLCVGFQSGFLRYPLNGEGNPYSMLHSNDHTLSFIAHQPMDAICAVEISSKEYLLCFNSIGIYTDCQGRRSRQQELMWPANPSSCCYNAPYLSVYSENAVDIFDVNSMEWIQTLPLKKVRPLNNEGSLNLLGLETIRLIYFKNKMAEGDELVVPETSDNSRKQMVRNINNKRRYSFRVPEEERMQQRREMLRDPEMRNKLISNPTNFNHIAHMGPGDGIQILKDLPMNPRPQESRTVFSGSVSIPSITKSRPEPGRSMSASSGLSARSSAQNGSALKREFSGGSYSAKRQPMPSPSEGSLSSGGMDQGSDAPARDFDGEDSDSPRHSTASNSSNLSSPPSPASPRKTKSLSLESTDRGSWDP
# test_method_notes: radiometric filter-binding kinase assay, Kinase HotSpot
# condition_notes: compound 0.5 µM; ATP 10 µM
Think of 90% as a floor: if residual activity stands on it or above, it is true (1); beneath it, false (0).

These recorded examples may help you get a feel for the data.
smiles_structure	class_assignment
O=c1cc(N2CCNCC2)oc2c(-c3ccccc3)cccc12	true (1)
Clc1ccc(Nc2nnc(Cc3ccncc3)c3ccccc23)cc1	false (0)
O=C1Nc2cc(Br)ccc2/C1=C1/Nc2ccccc2/C1=N\O	true (1)

Ask: Hello, I need to know if CC(C)n1cnc2c(Nc3cccc(Cl)c3)nc(NCCO)nc21 has measured residual activity not below 90%. Thanks!
Result: false (0)

Ask: Threshold query (residual activity >= 90%) on O=c1cc(-c2cccc3c2Sc2ccccc2S3)oc(N2CCOCC2)c1
Result: true (1)

Ask: Quick check, residual activity >= 90%? O=C1Cc2c([nH]c3ccc([N+](=O)[O-])cc23)-c2ccccc2N1
Result: true (1)

Ask: In plain terms: is recorded residual activity at least 90% for CCCNC(=O)Nc1ccc(Oc2ncnc3cc(OC)c(OC)cc23)cc1Cl ?
Result: false (0)

Ask: Tell me whether residual activity is at least 90% here: O=C1Nc2ccccc2/C1=C\c1c(Cl)[nH]c2ccccc12
Result: true (1)

* * *

# target_desc: FGR (human)
# test_method_notes: radiometric filter-binding kinase assay, Kinase HotSpot
# condition_notes: compound 0.5 µM; ATP 10 µM
Parameter: residual activity. Scope: all listed entries.
Numeric only. Scale: %

Consider the reported residual activity for these compounds:
smiles_structure	measurement_unit	quantitative_readout
Nc1n[nH]c2nnc(-c3c(-c4ccccc4)nn4ccccc34)cc12	%	92.9
O=C(Nc1ccc(Cl)cc1)c1ccccc1NCc1ccncc1	%	83.8

Ask: For the compound Oc1ccc(-c2nc(-c3ccc(F)cc3)c(-c3ccncc3)[nH]2)cc1 , report residual activity.
Result: 93

* * *

Recorded residual activity by entry
# target_desc: GSK3B (human)
# test_method_notes: radiometric filter-binding kinase assay, Kinase HotSpot
# condition_notes: compound 0.5 µM; ATP 10 µM
Express the result in % but write the number alone.

molecule	measured_attribute	quantitative_readout
CCN1/C(=C/C(C)=O)Sc2ccc(OC)cc21	residual activity	98.1
CC(C)n1cnc2c(Nc3cccc(Cl)c3)nc(NCCO)nc21	residual activity	96
CC(C)(C)c1nc2c3ccc(F)cc3c3c(=O)[nH]ccc3c2[nH]1	residual activity	95.1
O=C1Nc2ccccc2/C1=C\c1c(Cl)[nH]c2ccccc12	residual activity	105
COc1ccc(-c2cnc3c(-c4ccsc4)cnn3c2)cc1	residual activity	99.4

Ask: Query residual activity for Nc1n[nH]c2nnc(-c3c(-c4ccccc4)nn4ccccc34)cc12
Result: 109

Ask: Answer with the recorded residual activity for the molecule listed here: COc1cc2nccc(Oc3ccc(NC(=S)NC(=O)c4ccccc4C)cc3)c2cc1OC
Result: 97.7

* * *

# target_desc: STK38 (human)
# test_method_notes: radiometric filter-binding kinase assay, Kinase HotSpot
# condition_notes: compound 0.5 µM; ATP 10 µM
measured_attribute: residual activity (%)
Write the value in % as a bare number.

compound	target_desc	measurement_unit	residual activity
COc1cc2nccc(Oc3ccc(NC(=S)NC(=O)c4ccccc4C)cc3)c2cc1OC	STK38 (human)	%	107

Ask: Give measured residual activity for Clc1ccc(Nc2nnc(Cc3ccncc3)c3ccccc23)cc1 (STK38 (human)).
Result: 100

Ask: Print STK38 (human) residual activity for C#Cc1cccc(Nc2ncnc3cc(OCCOC)c(OCCOC)cc23)c1 .
Result: 101

Ask: Jot down residual activity (STK38 (human)) of Cc1ccc(NC(=O)c2ccc(CN3CCN(C)CC3)cc2)cc1Nc1nc(-c2cccnc2)cs1 .
Result: 95.9

Ask: Enter recorded residual activity with STK38 (human) for CS(=O)c1ccc(-c2nc(-c3ccc(F)cc3)c(-c3ccncc3)[nH]2)cc1 (stereo not given) here.
Result: 105

* * *

# target_desc: UniProt Q96KB5
# Sequence (Q96KB5 whole entry, looked up): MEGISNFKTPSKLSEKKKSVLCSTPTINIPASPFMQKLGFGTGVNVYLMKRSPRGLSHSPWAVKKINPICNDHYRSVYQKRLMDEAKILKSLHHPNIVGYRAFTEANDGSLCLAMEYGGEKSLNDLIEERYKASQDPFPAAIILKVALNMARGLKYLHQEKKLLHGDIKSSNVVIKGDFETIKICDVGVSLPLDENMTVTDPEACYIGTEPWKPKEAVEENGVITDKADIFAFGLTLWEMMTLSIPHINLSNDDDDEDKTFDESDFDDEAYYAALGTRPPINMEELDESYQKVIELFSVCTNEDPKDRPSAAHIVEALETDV
# test_method_notes: radiometric filter-binding kinase assay, Kinase HotSpot
# condition_notes: compound 0.5 µM; ATP 10 µM
measured_attribute: residual activity (%)
Write the number in % without appending the unit.

Solved entries:
compound	measurement_unit	quantitative_readout
O=C1Nc2cc(Br)ccc2/C1=C1/Nc2ccccc2/C1=N\O	%	109
COc1cc2nccc(Oc3ccc(NC(=S)NC(=O)c4ccccc4C)cc3)c2cc1OC	%	81.3
NC(=O)c1ccc(N(C(N)=O)c2c(F)cccc2F)nc1-c1ccc(F)cc1F	%	110
COc1cc2ncnc(Nc3ccc(F)c(Cl)c3)c2cc1OCCCN1CCOCC1	%	102
CC(C)(C)c1nc2c3ccc(F)cc3c3c(=O)[nH]ccc3c2[nH]1	%	39.1

Ask: Fill in residual activity for record CC(C)n1cnc2c(Nc3cccc(Cl)c3)nc(NCCO)nc21
Result: 101

Ask: Provide residual activity value for the following compound: CCCNC(=O)Nc1ccc(Oc2ncnc3cc(OC)c(OC)cc23)cc1Cl
Result: 66.2

* * *

# target_desc: MERTK (human)
# test_method_notes: radiometric filter-binding kinase assay, Kinase HotSpot
# condition_notes: compound 0.5 µM; ATP 10 µM
Please use 1 whenever residual activity is not below 90%, and -1 whenever it is.

smiles_structure	class_assignment
C#Cc1cccc(Nc2ncnc3cc(OCCOC)c(OCCOC)cc23)c1	1
CCCNC(=O)Nc1ccc(Oc2ncnc3cc(OC)c(OC)cc23)cc1Cl	-1
Cc1ccc(NC(=O)c2ccc(CN3CCN(C)CC3)cc2)cc1Nc1nc(-c2cccnc2)cs1	1
O=C1Cc2c([nH]c3ccc([N+](=O)[O-])cc23)-c2ccccc2N1	-1
O=c1cc(-c2cccc3c2Sc2ccccc2S3)oc(N2CCOCC2)c1	1

Ask: Please indicate if the recorded residual activity for O=C1Nc2cc(Br)ccc2/C1=C1/Nc2ccccc2/C1=N\O meets or exceeds 90%.
Result: -1

Ask: Reported residual activity at or above 90%? Nc1n[nH]c2nnc(-c3c(-c4ccccc4)nn4ccccc34)cc12
Result: -1

Ask: Determine whether this compound has residual activity no lower than 90%: Nc1nc(Nc2ccc(S(N)(=O)=O)cc2)nn1C(=S)Nc1c(F)cccc1F
Result: -1

Ask: Threshold query (residual activity >= 90%) on Clc1ccc(Nc2nnc(Cc3ccncc3)c3ccccc23)cc1
Result: 1

Ask: Could you please find out whether Oc1ccc(-c2nc(-c3ccc(F)cc3)c(-c3ccncc3)[nH]2)cc1 has residual activity that meets 90% or exceeds it?
Result: -1

* * *

Catalogue of residual activity readings, one per entry.
# target_desc: FLT3 (human) (UniProt P36888)
# Sequence (P36888 whole entry, looked up): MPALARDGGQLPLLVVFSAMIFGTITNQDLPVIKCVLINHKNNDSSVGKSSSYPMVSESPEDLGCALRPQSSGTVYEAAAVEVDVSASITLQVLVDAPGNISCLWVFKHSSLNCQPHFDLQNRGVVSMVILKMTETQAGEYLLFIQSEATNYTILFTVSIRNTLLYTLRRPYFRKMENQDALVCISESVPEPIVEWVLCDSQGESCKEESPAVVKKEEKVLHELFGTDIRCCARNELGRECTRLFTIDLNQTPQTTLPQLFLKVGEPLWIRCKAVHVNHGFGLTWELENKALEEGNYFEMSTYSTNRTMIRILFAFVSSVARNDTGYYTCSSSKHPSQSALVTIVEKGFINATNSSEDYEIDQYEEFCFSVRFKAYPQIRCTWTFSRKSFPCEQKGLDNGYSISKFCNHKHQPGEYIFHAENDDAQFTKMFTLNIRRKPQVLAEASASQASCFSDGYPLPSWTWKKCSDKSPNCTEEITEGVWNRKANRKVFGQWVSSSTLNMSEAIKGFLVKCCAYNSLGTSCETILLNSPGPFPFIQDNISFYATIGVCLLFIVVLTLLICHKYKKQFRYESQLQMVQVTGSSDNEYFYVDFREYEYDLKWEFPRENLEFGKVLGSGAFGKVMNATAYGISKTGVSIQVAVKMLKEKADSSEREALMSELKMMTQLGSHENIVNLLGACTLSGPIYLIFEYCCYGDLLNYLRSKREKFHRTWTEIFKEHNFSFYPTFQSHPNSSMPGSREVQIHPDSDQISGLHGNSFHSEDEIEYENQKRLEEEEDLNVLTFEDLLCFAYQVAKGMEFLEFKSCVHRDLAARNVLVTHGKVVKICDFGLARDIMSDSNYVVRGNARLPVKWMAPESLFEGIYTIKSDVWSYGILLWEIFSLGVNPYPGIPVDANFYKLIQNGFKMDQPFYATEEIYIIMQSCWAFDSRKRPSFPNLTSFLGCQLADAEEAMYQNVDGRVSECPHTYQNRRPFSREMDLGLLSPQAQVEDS
# test_method_notes: radiometric filter-binding kinase assay, Kinase HotSpot
# condition_notes: compound 0.5 µM; ATP 10 µM
The response must be a number in % with no trailing unit.

Please review the entries below; each comes with its answer.
compound	measured_attribute	quantitative_readout
CC(C)n1cnc2c(Nc3cccc(Cl)c3)nc(NCCO)nc21	residual activity	15.1
COc1cc2ncnc(Nc3ccc(F)c(Cl)c3)c2cc1OCCCN1CCOCC1	residual activity	56.5
Nc1nc(Nc2ccc(S(N)(=O)=O)cc2)nn1C(=S)Nc1c(F)cccc1F	residual activity	1.07

Ask: Given Cc1cc(Nc2cc(N3CCN(C)CC3)nc(Sc3ccc(NC(=O)C4CC4)cc3)n2)[nH]n1 , report its residual activity on FLT3 (human) (UniProt P36888).
Result: 6.67

Ask: Determine reported residual activity for CSc1nc(-c2ccc(F)cc2)c(-c2ccnc(NC(C)c3ccccc3)c2)[nH]1 (stereo not given) ; test system: FLT3 (human) (UniProt P36888).
Result: 92.8
